Target or system human PDE10A (Homo sapiens): recorded pIC50 listed per item.
pIC50: −log10 of the molar value.
Quantity Kind: pIC50

1. N#Cc1c(-c2ccc(O)cc2)cc(-c2ccc(O)cc2)nc1N; 5.51
2. COc1ccccc1-c1cc(-c2ccco2)nc(N)c1C#N; 5.00
3. N#Cc1c(-c2ccccc2)cc(-c2nccs2)nc1N; 5.70
4. Cn1cccc1-c1cc(-c2ccccc2)c(C#N)c(N)n1; 5.44

====

Target: A3 human receptor (A3R) (Homo sapiens, UniProt P0DMS8)
Construct: expressed in transfected cells; host or cells: HeLa
Sequence (P0DMS8 whole entry): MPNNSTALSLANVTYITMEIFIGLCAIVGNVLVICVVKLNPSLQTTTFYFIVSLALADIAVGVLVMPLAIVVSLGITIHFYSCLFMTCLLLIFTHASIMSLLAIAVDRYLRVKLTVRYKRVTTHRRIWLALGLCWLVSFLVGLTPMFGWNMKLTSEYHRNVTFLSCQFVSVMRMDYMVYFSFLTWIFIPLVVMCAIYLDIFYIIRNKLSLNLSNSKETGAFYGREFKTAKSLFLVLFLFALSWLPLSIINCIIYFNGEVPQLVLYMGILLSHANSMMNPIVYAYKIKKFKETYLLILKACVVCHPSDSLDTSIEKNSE
Assay: Radioligand binding competition assay, human A3 receptor in transfected HeLa cells
Conditions: 0.1 µM compound; read-out: percentage displacement at 0.1µM (A3R)
Form field: inhibition at 0.1 µM (one value per entry).
Quantity Kind: inhibition at 0.1 µM (%)

1. N#Cc1c(-c2ccco2)cc(-c2ccsc2)nc1N; 2
2. COc1ccccc1-c1cc(-c2ccc(O)cc2)nc(N)c1C#N; 2
3. N#Cc1c(C2CCCCC2)cc(-c2cccs2)nc1N; 26
4. N#Cc1c(C2CCCCC2)cc(-c2ccsc2)nc1N; 14
5. N#Cc1c(C2CCCCC2)cc(-c2ccco2)nc1N; 19
6. N#Cc1c(-c2ccc(O)cc2)cc(-c2ccc(O)cc2)nc1N; 1
7. N#Cc1c(-c2ccccc2F)cc(-c2ccccc2F)nc1N; 1
8. N#Cc1c(-c2ccccc2)cc(-c2ccc(F)cc2)nc1N; 27
9. N#Cc1c(C2CCCCC2)cc(-c2ccccc2F)nc1N; 7
10. COc1ccc(-c2cc(-c3ccccc3C)nc(N)c2C#N)cc1; 17
11. N#Cc1c(C2CCCCC2)cc(-c2ccccc2)nc1N; 13
12. COc1ccc(-c2cc(-c3ccc(O)cc3)nc(N)c2C#N)cc1; 8
13. N#Cc1c(-c2ccc3c(c2)OCO3)cc(-c2ccccc2)nc1N; 2
14. COc1ccccc1-c1cc(-c2ccccc2C)nc(N)c1C#N; 6
15. COc1ccc(-c2cc(-c3ccccc3)nc(N)c2C#N)c(OC)c1; 6
16. COc1ccccc1-c1cc(-c2ccco2)nc(N)c1C#N; 23
17. N#Cc1c(-c2ccccc2)cc(-c2ccc(O)cc2)nc1N; 2
18. Cn1cccc1-c1cc(-c2ccccc2)c(C#N)c(N)n1; 13
19. COc1ccccc1-c1cc(-c2ccccc2F)nc(N)c1C#N; 1
20. N#Cc1c(-c2ccccc2)cc(-c2nccs2)nc1N; 6
